Origin of the recorded values: ChEMBL document CHEMBL3046271

test system: Rattus norvegicus; assay: Ulcerogenic activity in Rattus norvegicus Wistar (rat) stomach assessed as severity index at 210 mg/kg, po after 17 hr relative to control; type: toxicity, organism-based; parameters: dose 210 mg/kg, route oral; conditions: in vivo
Hi there, I'd appreciate the recorded UI for every entry that follows.
Give bare numbers.

Solved entries (count: 4):
| molecule | assay_system | UI |
| --- | --- | --- |
| Clc1ccc(C2=NOC(c3c[nH]c4ccccc34)C2CN2CCCCC2)cc1 (stereo not given) | Rattus norvegicus | 0.583 |
| Clc1ccc(C2=NOC(c3c[nH]c4ccccc34)C2CN2CCOCC2)cc1 (stereo not given) | Rattus norvegicus | 0.75 |
| Cc1ccc(C2=NOC(c3c[nH]c4ccccc34)C2CN2CCCCC2)cc1 (stereo not given) | Rattus norvegicus | 0.5 |
| COc1ccc(C2=NOC(c3c[nH]c4ccccc34)C2CN2CCCCC2)cc1 (stereo not given) | Rattus norvegicus | 0.75 |

For the next question, use this molecule.
Dear colleague, I am looking for the recorded UI of the following molecule: COc1ccc(C2=NOC(c3c[nH]c4ccccc34)C2CN2CCOCC2)cc1 (stereo not given) 0.25

###

Hi there, I'd appreciate the recorded Activity for every entry that follows.
system: Rattus norvegicus; assay: Antioxidant activity in Rattus norvegicus Wistar (rat) assessed as malondialdehyde content in gastric mucosa at 210 mg/kg, po after 17 hr by UV spectrophotometric analysis (reference value: 3.23 +/- 0.05 nmol); format: functional
Answers are plain numbers, in nmol.

Solved entries (count: 3):
| compound | Activity (nmol) |
| --- | --- |
| Clc1ccc(C2=NOC(c3c[nH]c4ccccc34)C2CN2CCOCC2)cc1 (stereo not given) | 4.39 |
| Clc1ccc(C2=NOC(c3c[nH]c4ccccc34)C2CN2CCCCC2)cc1 (stereo not given) | 4.38 |
| COc1ccc(C2=NOC(c3c[nH]c4ccccc34)C2CN2CCCCC2)cc1 (stereo not given) | 4.51 |

Batch of 2 compounds: report Activity for each.
1. Cc1ccc(C2=NOC(c3c[nH]c4ccccc34)C2CN2CCCCC2)cc1 (stereo not given)
2. COc1ccc(C2=NOC(c3c[nH]c4ccccc34)C2CN2CCOCC2)cc1 (stereo not given)

1: 4.28; 2: 4.16
